Molecular target: Receptor tyrosine-protein kinase erbB-2 (Homo sapiens)
Assay: Inhibition of erbB2 expressed in Sf9 cells
IC50 by entry:
Only the number, expressed in nM, is required.

As a guide, the following entries are already answered.
Cc1cc(Nc2ncnc3cnc(NCCN4CCOCC4)cc23)ccc1Oc1ccc(C(=O)NCC(C)(C)C)cc1 280
Cc1cc(Nc2ncnc3cnc(N4CCOCC4)cc23)ccc1OC1CCN(C(=O)Nc2c(F)cccc2F)CC1 7
CNc1cc2c(Nc3ccc(Oc4ccc(C(=O)NCC(C)(C)C)cc4)c(C)c3)ncnc2cn1 30

// query Give Receptor tyrosine-protein kinase erbB-2 (Homo sapiens) IC50 for `CNc1cc2c(Nc3ccc(OC4CCN(C(=O)Nc5c(F)cccc5F)CC4)c(C)c3)ncnc2cn1`
// result 25

// query Repeat with `Cc1cc(Nc2ncnc3cnc(N4CCOCC4)cc23)ccc1OC1CCN(C(=O)CC(C)(C)C)CC1`
// result 23

// query // repeat for `COCC(=O)NCC#Cc1ccc2ncnc(Nc3ccc(Oc4cccc(C(=O)Nc5ccccc5)c4)c(C)c3)c2c1` and report
// result 140

* * *

Biological target: Receptor tyrosine-protein kinase erbB-2 (Homo sapiens, UniProt P04626)
Sequence (P04626 whole entry): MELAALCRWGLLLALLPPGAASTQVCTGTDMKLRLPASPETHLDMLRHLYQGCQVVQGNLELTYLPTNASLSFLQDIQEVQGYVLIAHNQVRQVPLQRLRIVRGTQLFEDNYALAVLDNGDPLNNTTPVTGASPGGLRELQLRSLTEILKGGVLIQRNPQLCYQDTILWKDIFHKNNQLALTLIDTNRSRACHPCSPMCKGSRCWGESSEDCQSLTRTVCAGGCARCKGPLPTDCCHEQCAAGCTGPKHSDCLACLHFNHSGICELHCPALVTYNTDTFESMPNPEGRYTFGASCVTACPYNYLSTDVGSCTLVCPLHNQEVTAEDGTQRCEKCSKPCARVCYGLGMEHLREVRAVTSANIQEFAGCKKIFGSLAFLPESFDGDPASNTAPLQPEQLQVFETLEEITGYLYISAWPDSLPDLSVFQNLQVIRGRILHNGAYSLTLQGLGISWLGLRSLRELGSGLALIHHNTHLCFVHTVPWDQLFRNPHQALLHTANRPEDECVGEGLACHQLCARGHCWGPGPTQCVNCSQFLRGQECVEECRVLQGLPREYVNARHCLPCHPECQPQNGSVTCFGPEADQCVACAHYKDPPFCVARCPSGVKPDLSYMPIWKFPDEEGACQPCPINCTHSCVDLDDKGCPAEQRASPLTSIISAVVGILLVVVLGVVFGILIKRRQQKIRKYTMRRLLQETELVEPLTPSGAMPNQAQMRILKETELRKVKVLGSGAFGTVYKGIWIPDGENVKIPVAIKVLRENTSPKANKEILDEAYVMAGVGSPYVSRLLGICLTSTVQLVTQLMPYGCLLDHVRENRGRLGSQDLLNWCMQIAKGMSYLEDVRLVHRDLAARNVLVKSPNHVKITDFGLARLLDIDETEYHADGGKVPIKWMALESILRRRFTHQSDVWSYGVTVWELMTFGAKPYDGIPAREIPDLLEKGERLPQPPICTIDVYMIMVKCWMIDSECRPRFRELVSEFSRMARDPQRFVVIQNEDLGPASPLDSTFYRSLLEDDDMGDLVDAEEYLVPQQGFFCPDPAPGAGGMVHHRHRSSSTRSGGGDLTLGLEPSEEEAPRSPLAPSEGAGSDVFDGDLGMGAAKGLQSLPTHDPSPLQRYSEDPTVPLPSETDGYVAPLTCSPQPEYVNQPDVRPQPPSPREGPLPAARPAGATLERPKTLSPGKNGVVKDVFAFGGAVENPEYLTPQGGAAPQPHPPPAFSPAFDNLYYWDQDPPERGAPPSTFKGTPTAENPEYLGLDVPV
Test: Inhibition of erbB2 in NH3T3 cells
Format: cell-based
experimental.endpoint: IC50 (µM)
# output: bare number, implied unit µM

COCCOc1ccc2ncnc(Nc3ccc(OC4CCN(C(=O)Nc5c(F)cccc5F)CC4)c(C)c3)c2c1 0.033
COc1ccc2ncnc(Nc3ccc(OC4CCN(C(=O)Nc5c(F)cccc5F)CC4)c(C)c3)c2c1 0.25
Cc1cc(Nc2ncnc3cnc(N4CCOCC4)cc23)ccc1OC1CCN(C(=O)Nc2c(F)cccc2F)CC1 0.016

// query // returns reported IC50 for input `COCC(=O)NCC#Cc1ccc2ncnc(Nc3ccc(Oc4cccc(C(=O)NCC(C)(C)C)c4)c(C)c3)c2c1`
// result 0.11

* * *

Target: Epidermal growth factor receptor and ErbB2 (HER1 and HER2) (Homo sapiens) (UniProt P04626+P00533)
Test: Selectivity for erbB2 over EGFR
Format: protein assay
experimental.endpoint: Selectivity ratio

// query Reported Selectivity ratio for `COCCOc1cc2ncnc(Nc3ccc(OC4CCN(C(=O)C5CCCC5)CC4)c(C)c3)c2cc1OCCOC` : what is it?
// result > 19

// query Check `Cc1cc(Nc2ncnc3cnc(N4CCN(C)CC4)cc23)ccc1Oc1ccc(C(=O)NCC(C)(C)C)cc1` too.
// result > 660

// query Also `Cc1cc(Nc2ncnc3cnc(N4CCOCC4)cc23)ccc1OC1CCN(C(=O)C2CCCC2)CC1` , if possible.
// result > 300

// query Next up: `COCC(=O)NCC#Cc1ccc2ncnc(Nc3ccc(Oc4ccc(C(=O)NCC(C)(C)C)cc4)c(C)c3)c2c1`
// result 200

* * *

Molecular target: UniProt P04626
Assay: Inhibition of erbB2 in NH3T3 cells
Format: cell-based
We begin with a simple list: items and their reported IC50.
Report the figure in nM without appending any unit label.

Guide cases for IC50, answers given:
COCC(=O)NCC#Cc1ccc2ncnc(Nc3ccc(OC4CCN(C(=O)C5CCC5)CC4)c(C)c3)c2c1 51
Cc1cc(Nc2ncnc3cnc(N4CCOCC4)cc23)ccc1Oc1ccc(C(=O)NCC(C)(C)C)cc1 24

Moving on to the next compound.
// query I have this compound here, `Cc1cc(Nc2ncnc3ccc(OCCCN4CCOCC4)cc23)ccc1OC1CCN(C(=O)CC(C)(C)C)CC1` , and I need its recorded IC50.
// result 34
